Provenance of the data: patent US20260216347A1

Provide the reported IRAK3 HTRF degradation Ymin of each item.
Tested on: IRAK3 (Homo sapiens, UniProt Q9Y616)
Construct: IRAK Endogenous HTRF Degradation Assay; endogenous in cells
Assay explanation: IRAK endogenous HTRF degradation assay (Total-IRAK3 HTRF kit)
Assay type: cell-based
Condition notes: overnight incubation, lowest percentage of protein remaining
The response must be a number in % with no trailing unit.

Please look at O=C1CCC(c2ccc(N3CCN(CCN4CCC(n5cc(Nc6ncc(-c7cc8c(cc7F)OCCN8)n7ccnc67)cn5)CC4)CC3)cc2)C(=O)N1 (stereo not drawn) [Compound 51] and tell me its recorded IRAK3 HTRF degradation Ymin on IRAK3 (Homo sapiens, UniProt Q9Y616).
9.3

Please look at CN1CCOc2ccc(-c3cnc(Nc4cnn([C@H]5CC[C@H](CCN6CCN(c7ccc(C8CCC(=O)NC8=O)cc7)CC6)CC5)c4)c4nccn34)cc21 (stereo partly drawn) [Compound 40] and tell me its recorded IRAK3 HTRF degradation Ymin on IRAK3 (Homo sapiens, UniProt Q9Y616).
8.5

Please look at Cc1cc(-c2cnc(Nc3cnn(C4CCN(CCN5CCN(c6ccc(C7CCC(=O)NC7=O)cc6)[C@@H](C)C5)CC4)c3)c3nccn23)c(F)cc1F (stereo partly drawn) [Compound 44] and tell me its recorded IRAK3 HTRF degradation Ymin on IRAK3 (Homo sapiens, UniProt Q9Y616).
8.1

---

Tested on: IRAK3-ePL (Homo sapiens, UniProt Q9Y616)
Construct: expressed in transfected cells; host or cells: 293T CRBN OE/GSPT1 G575N KI cells, lentiviral transduction, puromycin selected
Assay explanation: IRAK3-ePL overexpressing degradation assay (InCELL Hunter luminescence, dose response)
Type: cell-based
Condition notes: lowest percentage of target protein remaining following compound treatment
Parameter measured: IRAK3 ePL degradation Ymin (%)
The response must be a number in % with no trailing unit.

Input Cc1cc(-c2cnc(Nc3cnn(C4CCN(CCN5[C@H](C)CN(c6ccc(C7CCC(=O)NC7=O)cc6)C[C@@H]5C)CC4)c3)c3nccn23)c(F)cc1F (stereo partly shown) , output reported IRAK3 ePL degradation Ymin.
13

Input Cc1cc(-c2cnc(Nc3cnn([C@H]4CC[C@H](CCN5CCN(c6ccc(C7CCC(=O)NC7=O)cc6)C[C@H]5C)CC4)c3)c3nccn23)c(F)cc1F (stereo partly shown) , output reported IRAK3 ePL degradation Ymin.
20

Input O=C1CCC(c2ccc(N3CCN(CCN4CCC(n5cc(Nc6ncc(C7=CCCC7)n7ccnc67)cn5)CC4)CC3)cc2)C(=O)N1 (stereo not shown) , output reported IRAK3 ePL degradation Ymin.
24

Input Cc1cccc(-c2cnc(Nc3cnn(C4CCN(CC(=O)N5CCN(c6ccc(C7CCC(=O)NC7=O)cc6)CC5)CC4)c3)c3nccn23)c1 (stereo not shown) , output reported IRAK3 ePL degradation Ymin.
16

Input Cc1cc(-c2cnc(Nc3cnn(C4CCN(CCN5CCN(c6ccc(C7CCC(=O)NC7=O)cc6)[C@H](C)C5)CC4)c3)c3nccn23)c(F)cc1F (stereo partly shown) , output reported IRAK3 ePL degradation Ymin.
25

Input Cc1cc(-c2cnc(Nc3cnn([C@H]4CCN(CCN5CCN(c6ccc(C7CCC(=O)NC7=O)cc6)C[C@H]5C)[C@@H](C)C4)c3)c3nccn23)c(F)cc1F (stereo partly shown) , output reported IRAK3 ePL degradation Ymin.
24

Input C[C@@H]1CN(c2ccc(C3CCC(=O)NC3=O)cc2)CCN1CCN1CCC(n2cc(Nc3ncc(C4CC4)n4ccnc34)cn2)CC1 (stereo partly shown) , output reported IRAK3 ePL degradation Ymin.
23

Input Cc1cc(-c2cnc(Nc3cnn(C4CCN(CCN5CCN(c6ccc(C7CCC(=O)NC7=O)cc6)C[C@H]5C)CC4)c3)c3nccn23)c(F)cc1F (stereo partly shown) , output reported IRAK3 ePL degradation Ymin.
14

Input Cc1cc(-c2cnc(Nc3cnn([C@H]4CC[C@H](CCN5CCN(c6ccc(C7CCC(=O)NC7=O)cc6)C[C@@H]5C)CC4)c3)c3nccn23)c(F)cc1F (stereo partly shown) , output reported IRAK3 ePL degradation Ymin.
24

Input Cc1cc(-c2cnc(Nc3cnn(C4CCN(CCN5CCN(c6cccc(C7CCC(=O)NC7=O)c6)CC5)CC4)c3)c3nccn23)c(F)cc1F (stereo not shown) , output reported IRAK3 ePL degradation Ymin.
44

Input O=C1CCC(c2ccc(N3CCN(CCN4CCC(n5cc(Nc6ncc(-c7ccc8c(c7)NC(=O)CO8)n7ccnc67)cn5)CC4)CC3)cc2)C(=O)N1 (stereo not shown) , output reported IRAK3 ePL degradation Ymin.
15

Input Cc1cc(-c2cnc(Nc3cnn(C4CCN(CCN5CCN(c6ccc(C7CCC(=O)NC7=O)cc6Cl)CC5)CC4)c3)c3nccn23)c(F)cc1F (stereo not shown) , output reported IRAK3 ePL degradation Ymin.
24

Input Cn1cc(-c2cnc(Nc3cnn(C4CCN(CCN5CCN(c6ccc(C7CCC(=O)NC7=O)cc6)CC5)CC4)c3)c3nccn23)cn1 (stereo not shown) , output reported IRAK3 ePL degradation Ymin.
24

---

Provide the reported DC50 of each item.
Tested on: IRAK3-ePL (Homo sapiens, UniProt Q9Y616)
Construct: expressed in transfected cells; host or cells: 293T CRBN OE/GSPT1 G575N KI cells, lentiviral transduction, puromycin selected
Assay explanation: IRAK3-ePL overexpressing degradation assay (InCELL Hunter luminescence, dose response)
Format: cell-based
Condition notes: read-out: IRAK3 ePL degradation EC50
Experimental: Example B1. IRAK3-ePL Overexpressing Degradation Assay Stable cell lines were generated by the following protocol. 3×10^5 Lenti-X 293T cells (Clonetech) were plated in 0.8 mL of media in a 12-well plate and incubated overnight at 37° C./5% CO2. […] IRAK3-ePL cellular dose response curve degradation assays were performed by the following protocol. […] Following the incubation of the plate for 1 h at room temperature, the luminescence signal was read using a ViewLux plate reader. […]
The response must be a number in nM with no trailing unit.

Input CN1CCOc2ccc(-c3cnc(Nc4cnn(C5CCN(CCN6CCN(c7ccc(C8CCC(=O)NC8=O)cc7)CC6)CC5)c4)c4nccn34)cc21 (stereo not drawn) , output reported DC50.
0.77

Input Cc1cc(-c2cnc(Nc3cnn(C4CCN(CCN5CCN(c6ccc(C7CCC(=O)NC7=O)cc6)CC5)CC4)c3)c3nccn23)c(F)cc1F (stereo not drawn) , output reported DC50.
0.5

Input Cc1cc(-c2cnc(Nc3cnn([C@H]4CC[C@H](CCN5CCN(c6ccc(C7CCC(=O)NC7=O)cc6)CC5)CC4)c3)c3nccn23)c(F)cc1F (stereo partly drawn) , output reported DC50.
4

Input O=C1CCC(c2ccc(N3CCN(CCN4CCC(n5cc(Nc6ncc(C7=CCCC7)n7ccnc67)cn5)CC4)CC3)cc2)C(=O)N1 (stereo not drawn) , output reported DC50.
0.54

Input Cc1ccccc1-c1cnc(Nc2cnn(C3CCN(CCN4CCN(c5ccc(C6CCC(=O)NC6=O)cc5)CC4)CC3)c2)c2nccn12 (stereo not drawn) , output reported DC50.
29

Input Cc1cc(-c2cnc(Nc3cnn(C4CCN(CCN5CCN(c6ccc(C7CCC(=O)NC7=O)c(F)c6)CC5)CC4)c3)c3nccn23)c(F)cc1F (stereo not drawn) , output reported DC50.
0.9

Input Cc1cc(-c2cnc(N(C)c3cnn(C4CCN(CCN5CCN(c6ccc(C7CCC(=O)NC7=O)cc6)CC5)CC4)c3)c3nccn23)c(F)cc1F (stereo not drawn) , output reported DC50.
96

Input Cc1cc(-c2cnc(N[C@H]3CCN(C4CCN(CCN5CCN(c6ccc(C7CCC(=O)NC7=O)cc6)CC5)CC4)C3)c3nccn23)c(F)cc1F (stereo partly drawn) , output reported DC50.
3300

Input Cc1cc(-c2cnc(Nc3cnn([C@H]4CCN(CCN5CCN(c6ccc(C7CCC(=O)NC7=O)cc6)C[C@H]5C)[C@@H](C)C4)c3)c3nccn23)c(F)cc1F (stereo partly drawn) , output reported DC50.
0.63

---

Provide the reported IC50 of each item.
Tested on: IRAK3 (Homo sapiens, UniProt Q9Y616)
Construct: IRAK Endogenous HTRF Degradation Assay; endogenous in cells
Assay explanation: IRAK3 biochemical binding assay (LanthaScreen Eu Kinase Binding, TR-FRET)
Method: Example B3. IRAK3 Biochemical Binding Assay The LanthaScreen® Eu Kinase Binding assay was performed as described by the vendor (ThermoFisher Scientific Waltham, MA). […] TR-FRET signal of the interaction (λex340/λem 665/λem 615) was read at room temperature with a delay time of 100 ρs and an integration time of 200 ρs using an Envision plate reader. […] Using these assays, IC50, Dmax, EC50, and DC50 values of the following compounds were determined. […]
The response must be a number in nM with no trailing unit.

Input Cn1nc(C2CCC(=O)NC2=O)c2cccc(N3CCN(CCN4CCC(n5cc(Nc6ncc(C7CC7)n7ccnc67)cn5)CC4)CC3)c21 (stereo not shown) , output reported IC50.
3.2

Input Cc1cc(-c2cnc(Nc3cnn(C4CCN(CCN5CCN(c6ccc([C@]7(C)CCC(=O)NC7=O)cc6)CC5)CC4)c3)c3nccn23)c(F)cc1F , output reported IC50.
1.7

Input CS(=O)(=O)c1cccc(-c2cnc(Nc3cnn(C4CCN(CCN5CCN(c6ccc(C7CCC(=O)NC7=O)cc6)CC5)CC4)c3)c3nccn23)c1 (stereo not shown) , output reported IC50.
380

Input Cc1cc(-c2cnc(Nc3cnn(C4CCN(CC(=O)N5CCN(c6ccc7c(c6)C(=O)N(C6CCC(=O)NC6=O)C7=O)CC5)CC4)c3)c3nccn23)c(F)cc1F (stereo not shown) , output reported IC50.
1

Input Cc1cccc(-c2cnc(Nc3cnn(C4CCN(CC(=O)N5CCN(c6ccc7c(c6)CN(C6CCC(=O)NC6=O)C7=O)CC5)CC4)c3)c3nccn23)c1 (stereo not shown) , output reported IC50.
1.8

Input O=C1CCC(c2ccc(N3CCN(CCN4CCC(n5cc(Nc6ncc(-c7ccc(F)cc7)n7ccnc67)cn5)CC4)CC3)cc2)C(=O)N1 (stereo not shown) , output reported IC50.
5.6

Input Cc1cc(-c2cnc(Nc3cnn([C@H]4CCN(CCN5CCN(c6ccc(C7CCC(=O)NC7=O)cc6)CC5)C[C@@H]4F)c3)c3nccn23)c(F)cc1F (stereo partly shown) , output reported IC50.
1.2

Input Cc1cccc(-c2cnc(Nc3cnn(C4CCN(CC(=O)N5CCN(c6ccc7c(c6)C(=O)N(C6CCC(=O)NC6=O)C7)CC5)CC4)c3)c3nccn23)c1 (stereo not shown) , output reported IC50.
1.5

Input Cc1cc(-c2cnc(Nc3cnn(C4CCN(CCN5CC6(C5)CN(c5ccc(C7CCC(=O)NC7=O)cc5)C6)CC4)c3)c3nccn23)c(F)cc1F (stereo not shown) , output reported IC50.
1.3

Input Cc1cccc(-c2cnc(Nc3cnn(C4CCN(CC(=O)N5CCN(c6ccc(C7CCC(=O)NC7=O)cc6)CC5)CC4)c3)c3nccn23)c1 (stereo not shown) , output reported IC50.
2.9

Input Cc1ccc(-c2cnc(Nc3cnn(C4CCN(CCN5CCN(c6ccc(C7CCC(=O)NC7=O)cc6)CC5)CC4)c3)c3nccn23)cc1 (stereo not shown) , output reported IC50.
27

Input Cc1cccc(-c2cnc(Nc3cnn(C4CCN(CCN5CCN(c6ccc(C7CCC(=O)NC7=O)cc6)CC5)CC4)c3)c3nccn23)c1 (stereo not shown) , output reported IC50.
5.9

Input Cc1nc(Nc2cnn(C3CCN(CCN4CCN(c5ccc(C6CCC(=O)NC6=O)cc5)CC4)CC3)c2)c2nccn2c1C (stereo not shown) , output reported IC50.
24

Input Cc1cc(-c2cnc(Nc3cnn(C4CCN(CCN5CCN(c6ccc(-n7ccc(=O)[nH]c7=O)cc6)CC5)CC4)c3)c3nccn23)c(F)cc1F , output reported IC50.
0.8

Input Cc1cc(-c2cnc(Nc3cnn(C4CCN(CCN5CCN(c6ccc(C7CCC(=O)NC7=O)cc6)C[C@@H]5C)CC4)c3)c3nccn23)c(F)cc1F (stereo partly shown) , output reported IC50.
1.5

Input Cc1cc(-c2cnc(Nc3cnn(C4CCN(CCN5CCC(n6cc(C7CCC(=O)NC7=O)cn6)CC5)CC4)c3)c3nccn23)c(F)cc1F (stereo not shown) , output reported IC50.
0.26

Input O=C1CCC(c2ccc(N3CCN(CCN4CCC(n5cc(Nc6ncc(-c7ccccc7)n7ccnc67)cn5)CC4)CC3)cc2)C(=O)N1 (stereo not shown) , output reported IC50.
16

Input Cc1cc(-c2cnc(Nc3cnn([C@H]4CC[C@@H](CN5CCN(c6ccc(C7CCC(=O)NC7=O)cc6)CC5)CC4)c3)c3nccn23)c(F)cc1F (relative stereo) , output reported IC50.
2.8

Input Cc1cc(-c2cnc(Nc3cnn([C@H]4CC[C@H](CCN5CCN(c6ccc(C7CCC(=O)NC7=O)cc6)CC5)CC4)c3)c3nccn23)c(F)cc1F (stereo partly shown) , output reported IC50.
8.9

Input Cn1nc(C2CCC(=O)NC2=O)c2ccc(N3CCN(CCN4CCC(n5cc(Nc6ncc(C7CC7)n7ccnc67)cn5)CC4)CC3)cc21 (stereo not shown) , output reported IC50.
25

Input C[C@@H]1CN(c2ccc(C3CCC(=O)NC3=O)cc2)CCN1CCN1CCC(n2cc(Nc3ncc(C4CC4)n4ccnc34)cn2)CC1 (stereo partly shown) , output reported IC50.
36

Input Cc1cc(-c2cnc(Nc3cnn([C@H]4CC[C@H](CCN5CCN(c6ccc([C@]7(C)CCC(=O)NC7=O)cc6)CC5)CC4)c3)c3nccn23)c(F)cc1F , output reported IC50.
17
